Origin of values: PubChem BioAssay

assayProtocol: E. coli DRC41 culture turbidity changes, primary screen, E. coli filamentation inducer project, strain DRC41, OD650, 48 h (AID 1152);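 note: E. coli MC1000 strain DRC41 lacking acrAB efflux pump and sulA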
measurementSetup: E. coli DRC41 (acrAB sulA), higher = more signal, called active from +8 up or from −8 down
Please enter T where z-score is greater than or equal to 2, and F where it is lower.

Worked cases, answers included:
compound	discreteLabel
CC(C)C(=C=CC[C@@H](O)c1ccc(CO)o1)CCO	F
C=CC[C@]1(C(=O)N2CCCCC2)COC(c2ccc(OCCCO)cc2)=N1	F
Cc1ccc(S[C@]2(C(=O)NCC(C)C)CC(=O)N(C(C)C)[C@@H]2c2ccc(CO)cc2)cc1	T
[N-]=[N+]=NCc1ccccc1C[C@]1(C(=O)NCc2ccccc2)N=C(c2ccc(OCCCO)cc2)O[C@H]1c1ccccc1	F
COC(=O)c1c2oc(c1C(=O)OC)C(=O)N[C@@H](C(C)C)Cn1nncc1C1(CCCCC1)NC(=O)N[C@H](CO)CC2	T
CC(C)C(CO)N1C(=O)[C@@H]2[C@H]3C(=O)OCC=C[C@H]3OC23C=CCN(Cc2ccccc2)C(=O)[C@@H]13 (stereo not given in full)	F
COc1ccc([Si](C)(C)[C@H]2[C@H](CC(=O)N3Cc4ccccc4C[C@H]3CO)O[C@@]3(C(=O)N(Cc4cccc(N5C(=O)COc6ccccc65)c4)c4ccccc43)[C@@H]2C)cc1	F
CC(C)C(CO)N1C(=O)[C@@H]2C3C(=O)OCCC/C=C\[C@H]3OC23C=CCN(C(C)C)C(=O)[C@@H]13 (stereo not given in full)	T

Prompt: Check this compound for z-score at or above 2: "CC(C)C[C@@H]1NC(=O)[C@@H]2C[C@H](C(=O)NCCCCCNC(=O)CS)[C@H](c3cccc(OCCO)c3)N2C1=O"
Response: F

Prompt: Could you please find out whether "C=CC[C@@H](OC(=O)Nc1ccc(SC)cc1)c1ccc(OCCO)cc1" has z-score that meets 2 or exceeds it?
Response: F

Prompt: Form field: z-score at least 2? Entry: "O=C1O[C@H](c2ccccc2)[C@H](c2ccccc2)N2[C@H]1[C@@H](C(=O)Nc1nc3ccccc3s1)[C@]1(C(=O)Nc3ccc(C#CCCO)cc31)[C@H]2c1ccccc1OCCO"
Response: T

Prompt: Evaluate CC(CO)N1C(=O)[C@@H]2C3C(=O)OCCC/C=C\[C@H]3OC23C=CCN(Cc2ccccc2)C(=O)[C@@H]13 (stereo not given in full) : z-score at minimum 2?
Response: T

Prompt: Hi team, for "COCCOC(=O)N1C(=O)[C@@]2(c3cc(C#CC4(O)CCCCCC4)ccc31)[C@H](C(=O)NC[C@H](O)c1ccccc1)[C@H]1C(=O)O[C@H](c3ccccc3)[C@H](c3ccccc3)N1[C@@H]2c1ccccc1OCCO" , is the recorded z-score at or above 2?
Response: F

Prompt: Dear colleague, could you confirm whether "CCCCC(=C=CC[C@@H](O)c1ccc(OCCO)cc1)C[C@@H](O)c1cc(Cl)cc(Cl)c1O" has z-score at or above 2?
Response: F
